# Conditions: 293.15 K; 60000 kPa; Liquid; Vibrating wire viscometry
I'd appreciate it if you could supply viscosity values for the items below.
Express it in mPa·s; write the number only.

Supply recorded viscosity for CCCCCCC [heptane] here.
0.6927

Supply recorded viscosity for CCCCCCCCCCCC [dodecane] here.
2.822

Supply recorded viscosity for Cc1ccccc1 [toluene] here.
0.908

Supply recorded viscosity for Cc1ccc(C)c(C)c1 [1,2,4-trimethylbenzene] here.
1.435

Supply recorded viscosity for CC(C)CC(C)(C)C [2,2,4-trimethylpentane] here.
0.9567

* * *

# Conditions: 353.15 K; 70000 kPa; Liquid; Vibrating wire viscometry
Measured quantity: viscosity (mPa·s)
Express it in mPa·s; write the number only.

Supply recorded viscosity for `CCCCCCC` here.
0.4304

Supply recorded viscosity for `Cc1ccccc1` here.
0.5176

Supply recorded viscosity for `CC(C)CC(C)(C)C` here.
0.5738

Supply recorded viscosity for `CCCCCCCCCCCC` here.
1.213

Supply recorded viscosity for `Cc1ccc(C)c(C)c1` here.
0.7177

* * *

# Conditions: 353.15 K; 40000 kPa; Liquid; Vibrating wire viscometry
Returns: string. Value is criterion met if measured viscosity is below 0.4 mPa·s, and criterion not met if it is greater than or equal to it.

Take the compound `CCCCCCC` and say whether its viscosity is less than 0.4 mPa·s.
criterion met

Take the compound `CCCCCCCCCCCC` and say whether its viscosity is less than 0.4 mPa·s.
criterion not met

Take the compound `Cc1ccc(C)c(C)c1` and say whether its viscosity is less than 0.4 mPa·s.
criterion not met

Take the compound `Cc1ccccc1` and say whether its viscosity is less than 0.4 mPa·s.
criterion not met

Take the compound `CC(C)CC(C)(C)C` and say whether its viscosity is less than 0.4 mPa·s.
criterion not met

* * *

I'd appreciate it if you could supply viscosity values for the items below.
# Conditions: 313.15 K; 5000 kPa; Liquid; Falling or rolling sphere viscometry
Express it in mPa·s; write the number only.

Supply recorded viscosity for `CCCCCCC` here.
0.3564

Supply recorded viscosity for `CC(C)CC(C)(C)C` here.
0.4251

Supply recorded viscosity for `Cc1ccc(C)c(C)c1` here.
0.7254

Supply recorded viscosity for `CCCCCCCCCCCC` here.
1.135

* * *

# Conditions: 293.15 K; 50000 kPa; Liquid; Vibrating wire viscometry
Measured quantity: viscosity (mPa·s)
Express it in mPa·s; write the number only.

Supply recorded viscosity for `CCCCCCCCCCCC` here.
2.56

Supply recorded viscosity for `CCCCCCC` here.
0.6406

Supply recorded viscosity for `Cc1ccccc1` here.
0.8532

Supply recorded viscosity for `CC(C)CC(C)(C)C` here.
0.8608

Supply recorded viscosity for `Cc1ccc(C)c(C)c1` here.
1.336

* * *

# Conditions: 353.15 K; 1000 kPa; Liquid; Vibrating wire viscometry
Binary call on viscosity: Satisfied from 0.3 mPa·s upward, Not satisfied beneath that.

Would you say Cc1ccccc1 [toluene] shows viscosity at minimum 0.3 mPa·s?
Satisfied

Would you say Cc1ccc(C)c(C)c1 [1,2,4-trimethylbenzene] shows viscosity at minimum 0.3 mPa·s?
Satisfied

Would you say CCCCCCCCCCCC [dodecane] shows viscosity at minimum 0.3 mPa·s?
Satisfied

Would you say CC(C)CC(C)(C)C [2,2,4-trimethylpentane] shows viscosity at minimum 0.3 mPa·s?
Not satisfied

Would you say CCCCCCC [heptane] shows viscosity at minimum 0.3 mPa·s?
Not satisfied

All figures here come from the NIST ThermoML archive (doi:10.1016/j.jct.2015.12.021).
